Target: T1, hTIGIT-hFc (human, UniProt Q495A1 22-141)
T1 construct: also called antigen protein hTIGIT-hFc; human TIGIT recombinant protein carrying a human Fc tag; not shown: human Fc tag
T1 sequence (looked up): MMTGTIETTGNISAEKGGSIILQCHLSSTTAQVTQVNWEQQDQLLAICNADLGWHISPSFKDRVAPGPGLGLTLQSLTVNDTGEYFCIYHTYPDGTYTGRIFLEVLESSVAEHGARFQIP
Assay: FACS blocking: hTIGIT-hFc bound on CHO-hCD112 cells, then antibody, APC anti-human IgG Fc; blocked partner CD112; unit from the x axis Log[µg/mL]
Measured Attribute: IC50 (µg/mL)
Answers are plain numbers, in µg/mL.

IN: Could you share which IC50 value was measured for 3Tigit-12 mouse monoclonal antibody (antibody, V domains shown, Mouse monoclonal antibody from hybridoma) VH: QVQLQQSGAELVRPGTSVKMSCKAAGYTFTNYWIGWVKQRPGHGLEWIGDIYPGGGYTNYDEKFKGKATLTADTSSRTAYMQLSSLTSEDSAIYHCVNGGYGSTYGYFDVWGAGTTVTVSS VL: DIVMSQSPSSLPVSVGEKVTMSCKSSQSLLFSSDQKNYLAWYQQKPGQSPKLLIYWASTRESGVPDRLTGSGSGTDFTLTISSVKAEDLAVYYCQQYHKYPFTFGGGTKLEIKR ?
OUT: 0.191
